Attribution: patent US20110166062A1

Target: T1, GIP receptor (UniProt P48546 22-466)
T1 sequence (looked up): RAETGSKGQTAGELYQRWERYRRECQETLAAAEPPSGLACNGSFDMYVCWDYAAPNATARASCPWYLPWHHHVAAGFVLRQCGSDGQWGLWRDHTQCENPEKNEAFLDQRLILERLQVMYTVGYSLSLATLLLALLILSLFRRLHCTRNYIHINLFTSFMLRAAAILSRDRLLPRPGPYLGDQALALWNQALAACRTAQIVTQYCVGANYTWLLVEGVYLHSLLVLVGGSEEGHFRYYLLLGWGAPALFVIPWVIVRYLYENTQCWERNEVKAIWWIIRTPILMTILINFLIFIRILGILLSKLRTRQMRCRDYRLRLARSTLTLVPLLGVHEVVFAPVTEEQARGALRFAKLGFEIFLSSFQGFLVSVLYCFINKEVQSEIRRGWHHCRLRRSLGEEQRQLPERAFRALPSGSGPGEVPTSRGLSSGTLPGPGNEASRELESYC
Test: cell-based or functional assay
Bridges are numbered along the chain shown (N, C = ends). Primed or numbered codes have the meaning given here. Where no end group is shown, it is not given here. Side-chain parts run from the residue outwards. [ ]: non-standard residue; d: D form. maleimide = maleimide group on activated PEG, it reacts with the Cys thiol (Michael addition) to give a thioether linkage; PEG 40 kDa″ = polyethylene glycol of 40 kDa covalently attached to the side chain; PEG 40 kDa = PEG (40 kDa) covalently attached to Cys; Aib = CC(C)(N)C(=O)O
Give EC50 for every item shown.
State just the number; it will be interpreted in nM.

IN: Retrieve EC50 measured for Y[Aib]EGTFTSDYSIYLDEQAAKEFVNWLLAGKGKKNWLKHNITQC(PEG 40 kDa″)-NH2 (lactam 16-20) [mt-208] and print it.
OUT: 0.313

IN: Retrieve EC50 measured for Y[Aib]QGTFTSDYSIYLDEQAAKEFVC(PEG 40 kDa″)WLMNG-NH2 (lactam 16-20) [mt-186] and print it.
OUT: 15.2

IN: Retrieve EC50 measured for Y[Aib]QGTFTSDYSIYLDEQAAKEFVC(PEG 40 kDa)WLLAG-NH2 (lactam 16-20) [mt-172] and print it.
OUT: 7.54

IN: Retrieve EC50 measured for Y[Aib]QGTFISDYSIYLDEQAAKEFVNWLLAGGPSSGAPPPSC-NH2 (lactam 16-20) [mt-176] and print it.
OUT: 0.055

IN: Retrieve EC50 measured for Y[Aib]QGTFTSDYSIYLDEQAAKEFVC(PEG 40 kDa)WLLAGGPSSGAPPPS-NH2 (lactam 16-20) [mt-175] and print it.
OUT: 1.93

IN: Retrieve EC50 measured for Y[Aib]EGTFTSDYSIYLDEQAAKEFVNWLLAGKGKKNWLKHNITQC-NH2 (lactam 16-20) [mt-206] and print it.
OUT: 0.115

IN: Retrieve EC50 measured for Y[Aib]EGTFTSDYSIYLDEQAAKEFVNWLLAGGPSSGAPPPSC([maleimide-PEG 40 kDa])-NH2 (lactam 16-20) [mt-178] and print it.
OUT: 0.448

IN: Retrieve EC50 measured for Y[Aib]QGTFISDYSIYLDEQAAKEFVNWLLAGGPSSGAPPPSC(PEG 40 kDa)-NH2 (lactam 16-20) [mt-182] and print it.
OUT: 0.08

IN: Retrieve EC50 measured for Y[Aib]QGTFTSEYSKYLDEQAAKEFVNWLLAGGPSSGAPPPSC-NH2 (lactam 9-12, 16-20; not fully specified) [mt-209] and print it.
OUT: 1.05

IN: Retrieve EC50 measured for Y[Aib]QGTFTSDYSIYLDEQAAKEFVNWLLAGKGKKNWLKHNITQC-NH2 (lactam 16-20) [mt-207] and print it.
OUT: 0.622
